# Protocol: PSAC antagonists in infected red cells, primary screen, cell-based, P. falciparum Indochina, OD700, 18 h (AID 1157)
# Conditions: P. falciparum Indochina infected erythrocytes, osmotic lysis OD700, 18 h; higher = more signal, called active from +8 up or from −8 down
Active and inactive are the calls of the source.
Readout name: z-score

Look at this compound and give its reported z-score. CC(C)CON=C1[C@H]2CCn3c(=O)n(-c4ccccc4)c(=O)n3[C@H]2[C@H](O)[C@@H]2O[C@H]12
0.0344 (inactive)

Then CN1C(=O)[C@@]2(CCC(=O)OC(C)(C)C)N=C(c3ccc(OCCCO)cc3)O[C@H]2c2ccccc21 ?
1.11 (inactive)

Then CO[C@@H]1COC(=O)CCC[C@@H](C)[C@H](OC)COC(=O)[C@H](Cc2ccccc2)NC(=O)CC=C[C@H]1C ?
0.368 (inactive)

Then COC(=O)CC=C[C@H](C)[C@H](CO)NS(=O)(=O)c1ccc(C)cc1 ?
-0.119 (inactive)

Then Cc1ccc(S(=O)(=O)N[C@@H]2COC(=O)[C@H](C)COC(=O)CC=C[C@H]2C)cc1 ?
-0.0893 (inactive)

Then CCc1cccc(NC(=O)O[C@H]2[C@H](OC(=O)Nc3ccc4c(c3)OCO4)[C@@H](OC(=O)Nc3ccc4c(c3)OCO4)[C@@H](OC)O[C@@H]2CO)c1 ?
0.495 (inactive)

Then CCOC(=O)[C@H](Cc1ccccc1)NC(=O)CCC1CC(OC(=O)NCc2ccc3c(c2)OCO3)CC2(CCCC(COC(=O)NCC(c3ccccc3)c3ccccc3)O2)O1 (some centres not stated) ?
1.3 (inactive)
